- assay.details: amyloid nucleation score (Sup35N fusion, yeast selection) (log enrichment); library NNK1; higher = more nucleation; inactive = no reads after selection;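 further: zero at mode of non-aggregating sequences after 7 days selection at 30°C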
Cut-off 0.4 on amyloid nucleation score, inclusive. At or above means y; below means n.

Study these solved cases before continuing.
> print(dat)
              substance  class.assignment
1       CFNMYLDVFDRVCRM                 y
2        VDWSVAWHWLLSSD                 y
3    KRYSGDIDMTSREMGLFK                 n
4  PAVIILVIKMHGGIKGKDGR                 n
5  VIVARQFISPSVYGDAMDHS                 y
6                VFGLAV                 n

Query: Is reported amyloid nucleation score greater than or equal to 0.4 here: AFYLLF
Result: n

Query: Hello, I need to know if FSCFLMEISKGRGH has measured amyloid nucleation score not below 0.4. Thanks!
Result: y

Query: Please indicate if the recorded amyloid nucleation score for GGTNAGRCMYGGRDI meets or exceeds 0.4.
Result: y

Query: Kindly determine if amyloid nucleation score recorded for SYWKNTVSCYVFFGMSRSRT is above or exactly 0.4.
Result: n

Query: Would you say VAWLNCSTKVGL shows amyloid nucleation score at minimum 0.4?
Result: n

Query: Confirm if amyloid nucleation score reported for the substance ITYSTYLMSCGRSMYQGWKV is 0.4 or above.
Result: n

Query: Reported amyloid nucleation score reaches at least 0.4 for GHQILDSCLANCYGGCLIAC ?
Result: y

Query: Check this substance for amyloid nucleation score at or above 0.4: GFGPDQFITESDSFTSAFVS
Result: n

Query: Hello, I need to know if RPGVNLWVLFVTMQTPEIRL has measured amyloid nucleation score not below 0.4. Thanks!
Result: y

Query: Check if amyloid nucleation score >= 0.4 (inclusive). Item: IYLSNAYSTTYSLKFSFM
Result: y

Query: Test whether the substance QGFRVWKLNTIKRHSWMGFA records amyloid nucleation score of 0.4 or higher.
Result: y

Query: Form field: amyloid nucleation score at least 0.4? Entry: NWSHGLLTPNVCW
Result: n

Query: Check the entry TAYVLLWTRTVFVFPEVHTF : does amyloid nucleation score equal or exceed 0.4?
Result: y

Query: Given the entry GRSGCCWMS , answer whether its amyloid nucleation score meets or surpasses 0.4.
Result: y

Query: Does the substance LVMYCWRTYVYLRTSRGYDA have recorded amyloid nucleation score that is 0.4 or more?
Result: n

Query: amyloid nucleation score >= 0.4 for IGSFDYGSNLGQIYGHNMLK ?
Result: n

Query: # bool: amyloid nucleation score of KRALQDRMLLEP >= 0.4
Result: n

Query: Say whether QPFTWVLQKNTRT shows amyloid nucleation score of 0.4 or more.
Result: y

Query: Check the entry RNDTSDVYGSSGRSNRP : does amyloid nucleation score equal or exceed 0.4?
Result: n

Query: # check: amyloid nucleation score of CLLVKLARLGDG is greater than or equal to 0.4
Result: y

Query: Quick check: does TSYYRGFYKYAWNG have amyloid nucleation score greater than or equal to 0.4?
Result: n

Query: Check if amyloid nucleation score >= 0.4 (inclusive). Item: MGGLRVYRPCVER
Result: n

Query: Tell me whether amyloid nucleation score is at least 0.4 here: VFYDVGGVSD
Result: n

Query: Does SLLCLCYV have a reported amyloid nucleation score of at least 0.4?
Result: y
